- Target Desc: human IL-13 (source not stated for the assay) (human, UniProt P35225 35-146, limits assumed)
- Sequence (P35225 35-146 limits assumed): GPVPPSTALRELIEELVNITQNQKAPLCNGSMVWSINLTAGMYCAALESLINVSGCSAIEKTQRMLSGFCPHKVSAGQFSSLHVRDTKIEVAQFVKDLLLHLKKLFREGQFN
- Method: cell-based or functional assay
class 1 if IC50, IL-13 induced eotaxin release, n = 2 is below 0.03 nM. class 0 if not; exact matches included in class 0.

The following binders have reported results that may help.
{"Binder": "mAb 264 (antibody, V domains shown) VH: EVQLVESGGGLVKPGGSLRLSCAASGFTFSSYSMNWVRQAPGKGLEWVSYISTSNSYIYYADSVKGRFTISRDNAKNSLYLQMNSLRAEDTAVYYCARDQVGATLDAFDIWGQGTMVTVSS VL: DIQMTQSPSSLSASVGDRVTFTCRASQDITDDLGWYQQKPGKAPKRLIYAASSLQSGVPSRFSGSGSGTEFTLTISSLQPEDFATYYCLQHNSYPFTFGPGTKVDIR", "Category": "class 0"}
{"Binder": "mAb 623 (antibody, V domains shown, also called sc623) VH: EVQLVESGGGLVKPGGSLRLSCAASGFTFSNAWMSWVRQAPGKGLEWVGRIRSEIDGGTTNYAAPVKGRFTISRDDSKNTLYLQMNSLKTEDTAVYYCATDQVGAYYGDYYGMDVWGQGTTVTVSS VL: SYELTQPPSVSVSPGQTARITCSGDALPEKYAYWYQQKSGQAPVLVIYEDSKRPSGIPERFSGSSSGTMATLTISGAQVEDEADYYCHSTDSSGNHGVFGGGTKLTVLG", "Category": "class 0"}
{"Binder": "mAb 643 (antibody, V domains shown) VH: EVQLVESGGGLVKPGGSLRLSCAASGFTFSNAWMSWVRQAPGKGLEWVGRIRSEIDGGTTNYAAPVKGRFTISRDDSKNTLYLQMNSLRTEDTAVYYCATDQVGAYYGDYYGMDVWGQGTTVTVSS VL: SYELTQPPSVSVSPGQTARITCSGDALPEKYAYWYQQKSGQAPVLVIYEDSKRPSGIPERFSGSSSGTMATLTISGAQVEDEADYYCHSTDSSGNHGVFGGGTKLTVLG", "Category": "class 1"}
{"Binder": "mAb 713 (antibody, V domains shown) VH: EVQLLESGGGLVQPGGSLRLSCAASGFTFSSYAMSWVRQAPGKGLEWVSAFSGSGGSTYYADSVKGRFTISRDNSKNTLYLQMNSLRAEDTAVYYCVQDGLGPYFYNYGMDVWGQGTTVTVSS VL: SYELTQPPSVSVSPGQTASITCSGDKLGDKYTCWFQQKPGQSPVLVIYHDSKRPSGIPERFSGSNSGDTATLTISGTQAMDEADYYCQAWDSSTYVFGTGTKVTVLG", "Category": "class 1"}

Q: Does the reported IC50, IL-13 induced eotaxin release, n = 2 of mAb 693 (antibody, V domains shown, also called sc693) VH: QVQLQESGPGLVKPSETLSLTCSVSGGSISSYYWSWIRQPAGKGLEWIGRIYMTGRTNYNSSLKSRVTMSIDTSKNQLSLKLSFMTAADTAVYYCARESGSSYSYDYWGQGTLVTVSS VL: SYVLTQPPSVSVAPGQTARITCGGNNIGSKGVHWYQQKPGQAPVLVVYDDSDRPSGIPERFSGSNSGNTATLTISRVEAGDEADYYCQVWVSSSDHHVVFGGGTKLTVV stay below 0.03 nM?
Ans: class 0
